System: A498
test protocol: Antiproliferative activity against human A498 cells at 10 uM incubated for 48 hrs by sulforhodamine B assay
Format: functional, cell-based
Activity calls are given as the source filed them. No cut-off for these calls is given here.
Labels: active, inactive

[
  {
    "smiles repr": "O=C(/C=C/c1ccccc1)O[C@H](c1ccccc1)[C@@H]1O[C@@H]2CC(=O)O[C@@H]2[C@H]1O",
    "qualitative label": "active"
  },
  {
    "smiles repr": "CC(=O)O[C@@H](C)[C@H]1O[C@H]2CC(=O)O[C@H]2[C@@H]1O",
    "qualitative label": "inactive"
  },
  {
    "smiles repr": "O=C1C[C@H]2O[C@H]([C@H](O)c3ccccc3)[C@H](O)[C@H]2O1",
    "qualitative label": "active"
  },
  {
    "smiles repr": "CC(=O)O[C@H](C)[C@H]1O[C@H]2CC(=O)O[C@H]2[C@@H]1O",
    "qualitative label": "inactive"
  },
  {
    "smiles repr": "CC(=O)O[C@@H](C)[C@@H]1O[C@@H]2CC(=O)O[C@@H]2[C@H]1O",
    "qualitative label": "inactive"
  },
  {
    "smiles repr": "O=C1C[C@H]2O[C@H]([C@@H](O)c3ccccc3)[C@H](O)[C@H]2O1",
    "qualitative label": "active"
  },
  {
    "smiles repr": "CC(=O)O[C@H](C)[C@@H]1O[C@@H]2CC(=O)O[C@@H]2[C@H]1O",
    "qualitative label": "inactive"
  }
]

###

Tested on: U-251
test protocol: Antiproliferative activity against human U251 cells at 10 uM incubated for 48 hrs by sulforhodamine B assay
Assay type: functional, cell-based
Active and inactive are the calls of the source. The calls are words filed in the database; no cut-off is given here.
Labels: Y for active, N for inactive

[
  {
    "smiles repr": "O=C1C[C@H]2O[C@H]([C@@H](O)c3ccccc3)[C@H](O)[C@H]2O1",
    "qualitative label": "Y"
  },
  {
    "smiles repr": "O=C1C[C@H]2O[C@H]([C@H](O)c3ccccc3)[C@H](O)[C@H]2O1",
    "qualitative label": "Y"
  },
  {
    "smiles repr": "CC(=O)O[C@H](C)[C@H]1O[C@H]2CC(=O)O[C@H]2[C@@H]1O",
    "qualitative label": "N"
  },
  {
    "smiles repr": "CC(=O)O[C@H](C)[C@@H]1O[C@@H]2CC(=O)O[C@@H]2[C@H]1O",
    "qualitative label": "N"
  },
  {
    "smiles repr": "O=C(/C=C/c1ccccc1)O[C@H](c1ccccc1)[C@@H]1O[C@@H]2CC(=O)O[C@@H]2[C@H]1O",
    "qualitative label": "Y"
  },
  {
    "smiles repr": "CC(=O)O[C@@H](C)[C@@H]1O[C@@H]2CC(=O)O[C@@H]2[C@H]1O",
    "qualitative label": "N"
  },
  {
    "smiles repr": "CC(=O)O[C@@H](C)[C@H]1O[C@H]2CC(=O)O[C@H]2[C@@H]1O",
    "qualitative label": "N"
  }
]

###

System: RPMI-8226
test protocol: Antiproliferative activity against human RPMI8226 cells at 10 uM incubated for 48 hrs by sulforhodamine B assay
Format: functional, cell-based
Active and inactive are the calls of the source. The rule behind the calls is not given here.
Possible outcomes: active, inactive

[
  {
    "smiles repr": "O=C(/C=C/c1ccccc1)O[C@H](c1ccccc1)[C@@H]1O[C@@H]2CC(=O)O[C@@H]2[C@H]1O",
    "qualitative label": "active"
  },
  {
    "smiles repr": "CC(=O)O[C@@H](C)[C@@H]1O[C@@H]2CC(=O)O[C@@H]2[C@H]1O",
    "qualitative label": "inactive"
  },
  {
    "smiles repr": "O=C1C[C@H]2O[C@H]([C@@H](O)c3ccccc3)[C@H](O)[C@H]2O1",
    "qualitative label": "active"
  },
  {
    "smiles repr": "CC(=O)O[C@H](C)[C@@H]1O[C@@H]2CC(=O)O[C@@H]2[C@H]1O",
    "qualitative label": "inactive"
  },
  {
    "smiles repr": "CC(=O)O[C@H](C)[C@H]1O[C@H]2CC(=O)O[C@H]2[C@@H]1O",
    "qualitative label": "inactive"
  },
  {
    "smiles repr": "O=C1C[C@H]2O[C@H]([C@H](O)c3ccccc3)[C@H](O)[C@H]2O1",
    "qualitative label": "active"
  },
  {
    "smiles repr": "CC(=O)O[C@@H](C)[C@H]1O[C@H]2CC(=O)O[C@H]2[C@@H]1O",
    "qualitative label": "inactive"
  }
]

###

Tested on: IGROV-1
test protocol: Antiproliferative activity against human IGROV1 cells at 10 uM incubated for 48 hrs by sulforhodamine B assay
Type: functional, cell-based
Active and inactive are the calls of the source. No cut-off for these calls is given here.
Labels: yes for active, no for inactive

[
  {
    "smiles repr": "O=C1C[C@H]2O[C@H]([C@H](O)c3ccccc3)[C@H](O)[C@H]2O1",
    "qualitative label": "yes"
  },
  {
    "smiles repr": "CC(=O)O[C@H](C)[C@H]1O[C@H]2CC(=O)O[C@H]2[C@@H]1O",
    "qualitative label": "no"
  },
  {
    "smiles repr": "O=C(/C=C/c1ccccc1)O[C@H](c1ccccc1)[C@@H]1O[C@@H]2CC(=O)O[C@@H]2[C@H]1O",
    "qualitative label": "yes"
  },
  {
    "smiles repr": "CC(=O)O[C@@H](C)[C@@H]1O[C@@H]2CC(=O)O[C@@H]2[C@H]1O",
    "qualitative label": "no"
  },
  {
    "smiles repr": "O=C1C[C@H]2O[C@H]([C@@H](O)c3ccccc3)[C@H](O)[C@H]2O1",
    "qualitative label": "yes"
  },
  {
    "smiles repr": "CC(=O)O[C@@H](C)[C@H]1O[C@H]2CC(=O)O[C@H]2[C@@H]1O",
    "qualitative label": "no"
  },
  {
    "smiles repr": "CC(=O)O[C@H](C)[C@@H]1O[C@@H]2CC(=O)O[C@@H]2[C@H]1O",
    "qualitative label": "no"
  }
]

###

Tested on: NCI-H226
test protocol: Antiproliferative activity against human NCI-H226 cells at 10 uM incubated for 48 hrs by sulforhodamine B assay
Format: functional, cell-based
Activity calls are given as the source filed them. The calls are words filed in the database; no cut-off is given here.
readout name: Activity

[
  {
    "smiles repr": "CC(=O)O[C@H](C)[C@H]1O[C@H]2CC(=O)O[C@H]2[C@@H]1O",
    "readout name": "Activity",
    "result": "inactive"
  },
  {
    "smiles repr": "O=C1C[C@H]2O[C@H]([C@@H](O)c3ccccc3)[C@H](O)[C@H]2O1",
    "readout name": "Activity",
    "result": "Active"
  },
  {
    "smiles repr": "O=C(/C=C/c1ccccc1)O[C@H](c1ccccc1)[C@@H]1O[C@@H]2CC(=O)O[C@@H]2[C@H]1O",
    "readout name": "Activity",
    "result": "Active"
  },
  {
    "smiles repr": "CC(=O)O[C@H](C)[C@@H]1O[C@@H]2CC(=O)O[C@@H]2[C@H]1O",
    "readout name": "Activity",
    "result": "inactive"
  },
  {
    "smiles repr": "CC(=O)O[C@@H](C)[C@@H]1O[C@@H]2CC(=O)O[C@@H]2[C@H]1O",
    "readout name": "Activity",
    "result": "inactive"
  },
  {
    "smiles repr": "CC(=O)O[C@@H](C)[C@H]1O[C@H]2CC(=O)O[C@H]2[C@@H]1O",
    "readout name": "Activity",
    "result": "inactive"
  },
  {
    "smiles repr": "O=C1C[C@H]2O[C@H]([C@H](O)c3ccccc3)[C@H](O)[C@H]2O1",
    "readout name": "Activity",
    "result": "Active"
  }
]

###

System: HOP-92
test protocol: Antiproliferative activity against human HOP92 cells at 10 uM incubated for 48 hrs by sulforhodamine B assay
Type: functional, cell-based
Activity calls are given as the source filed them. The rule behind the calls is not given here.
Possible outcomes: 1.0 for active, 0.0 for inactive

[
  {
    "smiles repr": "O=C1C[C@H]2O[C@H]([C@@H](O)c3ccccc3)[C@H](O)[C@H]2O1",
    "target of assay": "HOP-92",
    "qualitative label": 1.0
  },
  {
    "smiles repr": "CC(=O)O[C@@H](C)[C@@H]1O[C@@H]2CC(=O)O[C@@H]2[C@H]1O",
    "target of assay": "HOP-92",
    "qualitative label": 0.0
  },
  {
    "smiles repr": "CC(=O)O[C@@H](C)[C@H]1O[C@H]2CC(=O)O[C@H]2[C@@H]1O",
    "target of assay": "HOP-92",
    "qualitative label": 0.0
  },
  {
    "smiles repr": "CC(=O)O[C@H](C)[C@H]1O[C@H]2CC(=O)O[C@H]2[C@@H]1O",
    "target of assay": "HOP-92",
    "qualitative label": 0.0
  },
  {
    "smiles repr": "CC(=O)O[C@H](C)[C@@H]1O[C@@H]2CC(=O)O[C@@H]2[C@H]1O",
    "target of assay": "HOP-92",
    "qualitative label": 0.0
  },
  {
    "smiles repr": "O=C1C[C@H]2O[C@H]([C@H](O)c3ccccc3)[C@H](O)[C@H]2O1",
    "target of assay": "HOP-92",
    "qualitative label": 1.0
  },
  {
    "smiles repr": "O=C(/C=C/c1ccccc1)O[C@H](c1ccccc1)[C@@H]1O[C@@H]2CC(=O)O[C@@H]2[C@H]1O",
    "target of assay": "HOP-92",
    "qualitative label": 1.0
  }
]
